All figures here come from patent US7312221B2.

Target: MIF (Homo sapiens, UniProt P14174)
Assay: Tautomerase assay (in vitro tautomerase inhibitory activity)
Assay type: biochemical
Settings: single determinations, range in brackets; read-out: Tautomerase Assay (Inhibitory Concentration (IC) of 50 μm)
MEASURE: IC50 (nM)
Field format: number, assumed nM, no unit text.

IC50 reported for this compound N#Cc1c(N2CCN(C(=O)c3cccs3)CC2)c2ccccc2n(Cc2ccc(F)cc2)c1=O [Compound 203] : 98

* * *

MEASURE: melting point

1. N#Cc1c(N2CCN(C(=O)C3CCCO3)CC2)c2ccccc2n(Cc2ccc(F)cc2)c1=O (centres unmarked)
123 to 135 °C
2. N#Cc1c(N2CCN(C(=O)c3ccc4c(c3)OCO4)CC2)c2ccccc2n(Cc2ccc(F)cc2)c1=O
140 to 160 °C
3. N#Cc1c(N2CCN(C(=O)c3ccc4ccccc4n3)CC2)c2ccccc2n(Cc2ccc(F)cc2)c1=O
144 to 157 °C
4. Cc1cc(C(=O)N2CCN(c3c(C#N)c(=O)n(Cc4ccc(F)cc4)c4ccccc34)CC2)no1
130 to 137 °C
5. N#Cc1c(N2CCN(C(=O)C3CCCS3)CC2)c2ccccc2n(Cc2ccc(F)cc2)c1=O (centres unmarked)
133 to 140 °C
6. N#Cc1c(N2CCN(C(=O)c3ccc(C(F)(F)F)cc3)CC2)c2ccccc2n(Cc2ccc(F)cc2)c1=O
181 to 185 °C
7. N#Cc1c(N2CCN(C(=O)c3c[nH]cn3)CC2)c2ccccc2n(Cc2ccc(F)cc2)c1=O
176 to 183 °C

Shift focus to the following entry.
melting point reported for this molecule N#Cc1c(N2CCN(C(=O)c3cnccn3)CC2)c2ccccc2n(Cc2ccc(F)cc2)c1=O : 145 to 156 °C

* * *

Measured pIC50 accompanies every entry in the list below.
Target: MIF (Homo sapiens)
Sequence (P14174 2-115 limits assumed): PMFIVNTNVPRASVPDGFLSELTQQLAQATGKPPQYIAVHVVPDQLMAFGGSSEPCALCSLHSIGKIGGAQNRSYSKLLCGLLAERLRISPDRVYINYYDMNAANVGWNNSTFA
Test: Tautomerase assay (in vitro tautomerase inhibitory activity)
Type: biochemical
Conditions: average of the determinations; read-out: Average IC 50 (Tautomerase Assay)
Here pIC50 is given on a logarithmic scale as minus log10 of the concentration in mol/L.

1. Cn1c(=O)c(C#N)c(N2CCN(C(=O)c3cccs3)CC2)c2ccccc21
6.49

pIC50 reported for this molecule N#Cc1c(N2CCN(C(=O)c3cccs3)CC2)c2ccccc2n(Cc2ccc(F)cc2)c1=O : 7.01

* * *

Target: MIF produced by THP-1 cells (Homo sapiens)
Construct: a test cell may express the MIF naturally (e.g., THP-1 cells); endogenous in cells; conditioned supernatant
Assay: THP-1 Cell Assay (THP-1/MIF inhibition, ELISA with anti-MIF monoclonal antibody)
Settings: average of the determinations; read-out: Average IC 50 (THP-1/MIF Inhibition)
MEASURE: pIC50
Here pIC50 is given on a logarithmic scale as minus log10 of the concentration in mol/L.

pIC50 reported for this molecule Cn1c(=O)c(C#N)c(N2CCN(C(=O)c3cccs3)CC2)c2ccccc21 : 6.82
